Here, each record is paired with measured pEC50 data.
test system: HCV replicon; test: Cell-based HCV replicon assay (Huh-luc/neo-ET, luciferase); set-up: species or system Hepatitis C virus; conditions: Hepatitis C virus; Huh-7 cell line, luciferase readout
pEC50: −log10 of the molar value.

{"columns": ["molecule", "pEC50"],
 "data": [
  ["C#C[C@@]1(O)[C@H](OC(=O)[C@@H](N)C(C)C)[C@@H](CO)O[C@H]1n1ccc2c(N)ncnc21 [Compound 3]", "~7.18"],
  ["C#C[C@@]1(O)[C@H](OC(=O)C(C)C)[C@@H](COC(=O)C(C)C)O[C@H]1n1cc(C(N)=O)c2c(N)ncnc21 [Compound 10]", "~7.46"]
]}
